- TARGET_DESC: T1, human ASCL1 (Achaete-scute homolog 1) (human, UniProt P50553 1-236)
- T1 construct: also called hASCL1; immobilized human ASCL1
- T1 sequence: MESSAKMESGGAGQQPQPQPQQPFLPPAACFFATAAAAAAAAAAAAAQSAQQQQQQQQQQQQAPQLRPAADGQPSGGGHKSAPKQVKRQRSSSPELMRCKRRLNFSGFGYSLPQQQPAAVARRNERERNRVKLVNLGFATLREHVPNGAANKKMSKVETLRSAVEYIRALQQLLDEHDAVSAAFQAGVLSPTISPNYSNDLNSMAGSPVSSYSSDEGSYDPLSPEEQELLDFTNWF
- RUN_DESCRIPTION: screening of Example 2 (ELISA) or cells
MEASURED_PROPERTY: binding result

BINDER	VALUE_REPORTED
SC72.132 (antibody, V domains shown, Murine monoclonal antibody from a hybridoma; light chain amplified with kappa primers) VH: EVKLVESEGGLVQPGSSMKLSCTASGFTFSDYYMAWVRQVPEKGLEWVATIDYDGSNTYYLDSLKSRFIISRDNAKNILYLQMSSLKSEDTATYYCARDGGYDEDYFDYWGQGTTLTVSS VL: DIVMSQSPSSLAVSVGEKVTLSCKSSQTLLYSSNQQNYLAWYQQKPGQSPKLLIYWASTRESGVPDRFTGSGSGTDFTLTISSVKAEDLAVYYCHQYYTYPFTFGSGTKLEIK	binds
SC72.76 (antibody, V domains shown, Murine monoclonal antibody from a hybridoma; light chain amplified with kappa primers) VH: QVQLKESGPGLVAPSQSLSITCTVSDFSLTNYAVHWVRQSPGKGLEWLGVIWSDGNTDYNAPFISRLSISKDNSKSQVFFKMNSLQADDTAIYYCASYGDSAYWGQGTLVTVSA VL: DIVLTQSPASLTVSLGQRATISCRASQSVRTSNYSYMHWYQQKPGQPPKLLIKYASNLESGVPARFSGSGSGTDFTLNIHPVEEEDTATYYCQHHWEIPFTFGGGTKLEIK	binds
